From: patent US20210292393A1

biological target: SARS-CoV-2 spike protein (SARS-CoV-2, UniProt P0DTC2 14-1208)

binder: antibody 481 (antibody, V domains shown) VH: EVQLVESGGGLIQPGGSLRLSCAASGFTVSSNYMSWVRQAPGKGLEWVSVIYSGGSTFYADSVKGRFTISRDNSKNTLYLQMNSLRAEDTAVYYCAREVAGTYDYWGQGTLVTVSS VL: DIQMTQSPSSVSASVGDRVTITCRASQGISSWLAWYQQKPGKAPKLLIYAASSLQSGVPSRFSGSGSGTDFTLTISSLQPEDFATYYCQQANSFPGGTFGPGTKVDIKR
koff: 2.96e-05 s⁻¹
--
binder: antibody 468 (antibody, V domains shown) VH: QVQLVESGGGVVQPGRSLRLSCAASGFTFSIYAMHWVRQAPGKGLEWVAVISYDGSNKYYADSVKGRFTISRDNSKNTLYLQMNSLRAEDTAVYYCAGSLPAGSYYYYYGMDVWGQGTTVTVSS VL: SYELTQPPSVSVSPGQTARITCSGDALPKQYAYWYQQKPGQAPVLVIYKDSERPSGIPERFSGSSSGTTVTLTISGVQAEDEADYYCQSADNSGTYVLFGGGTKLTVL
koff: 3.67e-05 s⁻¹
--
binder: antibody 458 (antibody, V domains shown) VH: QVQLVESGGGVVQPGRSLRLSCAASEFTFATYAMHWVRQAPGKGLEWVALISQDGSNKHYADSVKGRFTISRDNSKNTLYLQMNSLRAEGTAIYYCARESLEAAGPPFDYWGQGTLVTVSS VL: SYELTQPPSVSVSPGQTATIICSGDKLGEKYASWYQQKPGQSPALVIYQDRKRPSGIPERFSGSNSGNTATLTISGTQAMDEADYYCQAWDSSNSVVFGGGTKLTVP
koff: 8.87e-05 s⁻¹
